System: MDA-MB-231
Test: Growth inhibition of human MDA-MB-231 cells measured after 72 hrs by microplate reader analysis
Assay type: functional
REPORTED PROPERTY: GI50 (nM)

INSERT INTO results (chem_smiles, test_system, reported_measurement) VALUES
  ('COc1ccccc1/C=C/C(=O)/C=C/c1ccccc1OC', 'MDA-MB-231', 1000),
  ('O=C(/C=C/c1ccccc1F)/C=C/c1ccccc1F', 'MDA-MB-231', 1000),
  ('O=C1/C(=C/c2ccccc2O)COC/C1=C\c1ccccc1O', 'MDA-MB-231', 800),
  ('O=C(/C=C/c1ccc(O)cc1)/C=C/c1ccc(O)cc1', 'MDA-MB-231', 1000),
  ('O=C(/C=C/c1cccc(O)c1)/C=C/c1cccc(O)c1', 'MDA-MB-231', 1000),
  ('CC(=O)Oc1ccccc1/C=C/C(=O)/C=C/c1ccccc1OC(C)=O', 'MDA-MB-231', 1000),
  ('O=C1/C(=C/c2ccccc2F)COC/C1=C\c1ccccc1F', 'MDA-MB-231', 800),
  ('O=C(/C=C/c1ccccc1O)/C=C/c1ccccc1O', 'MDA-MB-231', 1000),
  ('CN1C/C(=C\c2ccccc2O)C(=O)/C(=C/c2ccccc2O)C1', 'MDA-MB-231', 900),
  ('O=C1/C(=C/c2ccccc2F)CNC/C1=C\c1ccccc1F', 'MDA-MB-231', 800);

----------
Test system: HUVEC
Assay: Anti-angiogenesis activity in HUVEC cells assessed as cell growth inhibition
Assay type: functional, cell-based
Settings: Homo sapiens
REPORTED PROPERTY: IC50 (nM)

INSERT INTO results (chem_smiles, test_system, reported_measurement) VALUES
  ('CN1C/C(=C\c2ccccc2O)C(=O)/C(=C/c2ccccc2O)C1', 'HUVEC', 1100);

----------
Tested on: DLD-1
Test: Antiproliferative activity against human DLD-1 cells assessed as cell growth inhibition measured after 72 hrs
Type: functional, cell-based
Conditions: DLD-1, 72 h
pIC50: −log10 of the molar value.
pIC50 overview
REPORTED PROPERTY: pIC50

INSERT INTO assay_data (compound, inequality_operator, reported_measurement) VALUES
  ('COc1cc(/C=C/C(=O)/C=C/c2cc(OC)c(OC)c(OC)c2)cc(OC)c1O', '=', 6.00),
  ('O=C1/C(=C/c2ccccc2)CCC/C1=C\c1ccccc1 [2,6-DIBENZYLIDENECYCLOHEXANONE]', '<', 4.30),
  ('CCOC(C)Oc1cccc(/C=C/C(=O)/C=C/c2cc(OC)c(OC)c(OC)c2)c1 (centres undefined)', '=', 6.00),
  ('COc1ccc(/C=C2\CCC/C(=C\c3ccc(OC)c(OC)c3)C2=O)cc1OC', '=', 5.00),
  ('COc1cc(/C=C/C(=O)/C=C/c2cccc(O)c2)cc(OC)c1OC', '=', 6.00),
  ('CCOC(C)COc1c(OC)cc(/C=C/C(=O)/C=C/c2cc(OC)c(OC)c(OC)c2)cc1OC (centres undefined)', '=', 6.00),
  ('C=C1CC2CC(C1)/C(=C\c1ccc(OC)c(OC)c1)C(=O)/C2=C/c1ccc(OC)c(OC)c1', '<', 4.30),
  ('COc1ccc(/C=C2\CC(C)C/C(=C\c3ccc(OC)c(OC)c3)C2=O)cc1OC (centres undefined)', '<', 4.30),
  ('COc1cc(CCC(O)CCc2cc(OC)c(OC)c(OC)c2)cc(OC)c1OC', '<', 4.30);

----------
inhibition at 4 ug/ml overview
Experiment: Cytotoxicity activity against mouse SVR cells assessed as cell growth inhibition at 4 ug/ml relative to control
Assay type: toxicity, cell-based
Conditions: at 4 µg/mL
REPORTED PROPERTY: inhibition at 4 ug/ml (%)

INSERT INTO measurements (chem_smiles, reading_unit, reported_measurement) VALUES
  ('O=C(/C=C/c1ccccc1)/C=C/c1ccccc1', '%', 87.1),
  ('O=C(/C=C/c1c(Cl)cccc1Cl)/C=C/c1c(Cl)cccc1Cl', '%', 87.1);

----------
Assay: Antiproliferative activity against human MCF-10A cells assessed as cell growth inhibition
Format: toxicity, cell-based
pIC50: −log10 of the molar value.
REPORTED PROPERTY: pIC50

INSERT INTO assay_data (chem_smiles, reported_property, reported_measurement) VALUES
  ('CCN(CC)CCOc1ccc(C(=O)N2C/C(=C\c3ccccc3)C(=O)/C(=C/c3ccccc3)C2)cc1', 'pIC50', 4.39),
  ('CCN(CC)CCOc1cccc(C(=O)N2C/C(=C\c3ccccc3)C(=O)/C(=C/c3ccccc3)C2)c1', 'pIC50', 4.39),
  ('Cc1ccc(/C=C2\CN(C(=O)c3ccc(OCCN(C)C)cc3)C/C(=C\c3ccc(C)cc3)C2=O)cc1', 'pIC50', 4.39);

----------
Test system: HuCCT-1
Assay: Antiproliferative activity against human HuCCT-1 cells assessed as cell growth inhibition measured after 72 hrs
Assay type: functional, cell-based
Conditions: HuCCT-1, 72 h
REPORTED PROPERTY: IC50

INSERT INTO assay_data (compound, reported_measurement) VALUES
  ('CCOC(C)COc1c(OC)cc(/C=C/C(=O)/C=C/c2cc(OC)c(OC)c(OC)c2)cc1OC (centres undefined)', '1 µM'),
  ('COc1ccc(/C=C2\CC(C)C/C(=C\c3ccc(OC)c(OC)c3)C2=O)cc1OC (centres undefined)', '> 50 µM'),
  ('O=C1/C(=C/c2ccccc2)CCC/C1=C\c1ccccc1', '> 50 µM'),
  ('C=C1CC2CC(C1)/C(=C\c1ccc(OC)c(OC)c1)C(=O)/C2=C/c1ccc(OC)c(OC)c1', '> 50 µM'),
  ('COc1cc(CCC(O)CCc2cc(OC)c(OC)c(OC)c2)cc(OC)c1OC', '> 50 µM'),
  ('CCOC(C)Oc1cccc(/C=C/C(=O)/C=C/c2cc(OC)c(OC)c(OC)c2)c1 (centres undefined)', '1 µM'),
  ('COc1ccc(/C=C2\CCC/C(=C\c3ccc(OC)c(OC)c3)C2=O)cc1OC', '10 µM'),
  ('COc1cc(/C=C/C(=O)/C=C/c2cc(OC)c(OC)c(OC)c2)cc(OC)c1O', '1 µM'),
  ('COc1cc(/C=C/C(=O)/C=C/c2cccc(O)c2)cc(OC)c1OC', '1 µM');

----------
Test system: DLD-1
Experiment: Antiproliferative activity against human DLD-1 cells assessed as cell growth inhibition measured after 96 hrs
Format: functional, cell-based
Details: DLD-1, 96 h
pIC50: −log10 of the molar value.
REPORTED PROPERTY: pIC50

INSERT INTO results (chem_smiles, reported_property, reported_measurement) VALUES
  ('O=C1/C(=C/c2ccccc2)CCC/C1=C\c1ccccc1', 'pIC50', 5.52),
  ('C=C1CC2CC(C1)/C(=C\c1ccc(OC)c(OC)c1)C(=O)/C2=C/c1ccc(OC)c(OC)c1', 'pIC50', 5.10);

----------
Assay: Cytotoxicity against HUVEC cells assessed as cell growth inhibition by anti-angiogenisis screening assay
Assay type: toxicity, cell-based
Conditions: human
GI50 overview
REPORTED PROPERTY: GI50 (µM)

INSERT INTO results (chem_smiles, reading_unit, reported_measurement) VALUES
  ('O=C(/C=C/c1ccc(O)cc1)/C=C/c1ccc(O)cc1', 'µM', 3.2),
  ('O=C(/C=C/c1ccccc1O)/C=C/c1ccccc1O', 'µM', 1.8),
  ('O=C(/C=C/c1ccccc1F)/C=C/c1ccccc1F', 'µM', 6.1),
  ('O=C(/C=C/c1cccc(O)c1)/C=C/c1cccc(O)c1', 'µM', 3.2);

----------
Assay: Antiproliferative activity against human Molt 4/C8 cells assessed as cell growth inhibition
Assay type: functional, cell-based
Conditions: Molt4/C8
pIC50: −log10 of the molar value.
REPORTED PROPERTY: pIC50

INSERT INTO measurements (chem_smiles, reported_measurement) VALUES
  ('C=CC(=O)N1C/C(=C\c2ccc(Cl)cc2)C(=O)/C(=C/c2ccc(Cl)cc2)C1', 6.55),
  ('O=C1/C(=C/c2ccccc2)CN(C(=O)c2ccc(/C=C/C(=O)c3ccc([N+](=O)[O-])cc3)cc2)C/C1=C\c1ccccc1', 5.80),
  ('Cc1ccc(C(=O)/C=C/c2ccc(C(=O)N3C/C(=C\c4ccccc4)C(=O)/C(=C/c4ccccc4)C3)cc2)cc1', 5.80),
  ('O=C1/C(=C/c2ccccc2)CN(C(=O)c2ccc(/C=C/C(=O)c3ccc(Cl)cc3)cc2)C/C1=C\c1ccccc1', 5.80),
  ('O=C1/C(=C/c2ccccc2)CN(C(=O)c2ccc(/C=C/C(=O)c3ccc(Cl)c(Cl)c3)cc2)C/C1=C\c1ccccc1', 5.80),
  ('O=C1/C(=C/c2ccccc2)CN(C(=O)/C=C/c2ccc3c(c2)OCO3)C/C1=C\c1ccccc1', 5.80),
  ('CN(C)c1ccc(/C=C2\CNC/C(=C\c3ccc(N(C)C)cc3)C2=O)cc1', 6.09),
  ('O=C1/C(=C/c2ccccc2)CN(C(=O)/C=C/c2ccc([N+](=O)[O-])cc2)C/C1=C\c1ccccc1', 5.80);
